SYSTEM_UNDER_TEST: human mGlu4 receptor (Homo sapiens, UniProt Q14833)
Construct: expressed in transfected cells; host or cells: monoclonal HEK-293 cell line, stably transfected
Sequence (Q14833 33-912): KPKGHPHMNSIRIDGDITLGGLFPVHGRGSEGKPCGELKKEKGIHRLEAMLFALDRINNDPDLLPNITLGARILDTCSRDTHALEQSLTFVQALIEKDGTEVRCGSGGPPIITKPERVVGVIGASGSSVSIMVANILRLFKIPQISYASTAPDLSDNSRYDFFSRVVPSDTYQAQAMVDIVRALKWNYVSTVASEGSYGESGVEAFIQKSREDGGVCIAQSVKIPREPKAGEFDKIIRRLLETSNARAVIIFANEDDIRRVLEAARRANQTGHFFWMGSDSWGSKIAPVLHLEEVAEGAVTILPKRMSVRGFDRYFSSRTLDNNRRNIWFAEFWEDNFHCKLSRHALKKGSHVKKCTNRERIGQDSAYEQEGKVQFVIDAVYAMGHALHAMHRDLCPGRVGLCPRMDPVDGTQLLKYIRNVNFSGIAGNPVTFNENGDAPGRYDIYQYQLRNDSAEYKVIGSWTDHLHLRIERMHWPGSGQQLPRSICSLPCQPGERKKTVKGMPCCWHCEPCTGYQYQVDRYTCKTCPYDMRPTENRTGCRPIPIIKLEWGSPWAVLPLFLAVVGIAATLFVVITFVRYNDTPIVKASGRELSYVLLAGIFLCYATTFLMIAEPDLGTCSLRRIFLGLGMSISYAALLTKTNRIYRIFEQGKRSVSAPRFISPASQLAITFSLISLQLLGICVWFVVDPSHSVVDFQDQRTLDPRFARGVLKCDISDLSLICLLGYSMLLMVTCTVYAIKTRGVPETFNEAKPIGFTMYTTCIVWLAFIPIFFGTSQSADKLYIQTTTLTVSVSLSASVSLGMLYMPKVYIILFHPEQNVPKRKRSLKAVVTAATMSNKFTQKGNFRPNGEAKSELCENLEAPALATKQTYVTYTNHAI
EXPERIMENTAL_PROTOCOL: Ca2+ mobilization in vitro assay on recombinant human mGlu4 expressed in HEK293 cells (PAM, L-AP4 at EC20)
Format: cell-based
EXPERIMENTAL_CONDITIONS: HEK293 cells expressing human mGlu4; L-AP4 added at EC20
Rule: measured EC50 below 60 nM gets MET; anything equal to or greater than 60 nM gets NOT MET.

Exercise: Here's an entry: CN1C(=O)N(c2c(F)cc(C#Cc3ccccc3)cc2F)C(=O)C[C@@]1(C)c1cn[nH]c1 . Is its EC50 below 60 nM?
Key: MET

Exercise: Here's an entry: CN1C(=O)N(c2c(F)cc(C#Cc3ccc(F)cc3F)cc2F)C(=O)C[C@@]1(C)c1cnn(C)c1 . Is its EC50 below 60 nM?
Key: NOT MET

Exercise: Here's an entry: CN1C(=O)N(c2c(F)cc(C#Cc3ccccc3)cc2F)C(=O)C[C@@]1(C)c1cn(C)c2ncccc12 . Is its EC50 below 60 nM?
Key: NOT MET

Exercise: Here's an entry: CN1C(=O)N(c2c(F)cc(C#Cc3ccccc3)cc2F)C(=O)C[C@@]1(C)c1cnn[nH]1 . Is its EC50 below 60 nM?
Key: MET

Exercise: Here's an entry: CN1C(=O)N(c2c(F)cc(C#Cc3ccc(F)cc3)cc2F)C(=O)C[C@@]1(C)c1cnn(C)c1 . Is its EC50 below 60 nM?
Key: MET

Exercise: Here's an entry: CN1C(=O)N(c2c(F)cc(C#Cc3ccc(F)cc3F)cc2F)C(=O)C[C@@]1(C)c1cn[nH]c1 . Is its EC50 below 60 nM?
Key: MET

Exercise: Here's an entry: CN1C(=O)N(c2c(F)cc(C#Cc3ccccc3)cc2F)C(=O)C[C@@]1(C)c1ccn(C2CCOC2)n1 (mixture of isomers) . Is its EC50 below 60 nM?
Key: NOT MET

---

SYSTEM_UNDER_TEST: human mGlu4 receptor (Homo sapiens, UniProt Q14833)
Construct: expressed in transfected cells; host or cells: monoclonal HEK-293 cell line, stably transfected
EXPERIMENTAL_PROTOCOL: Ca2+ mobilization in vitro assay on recombinant human mGlu4 expressed in HEK293 cells (PAM, L-AP4 at EC20)
Type: cell-based
EXPERIMENTAL_CONDITIONS: HEK293; maximal response in % of the maximal stimulatory effect obtained with saturating concentrations of L-AP4; read-out: Eff. (%)
ENDPOINT_LABEL: Emax (%)
Just the number please, in %, no unit attached.

Exercise: Read the entry CN1C(=O)N(c2c(F)cc(C#Cc3ccccc3)cc2F)C(=O)C[C@@]1(C)c1ncnn1C and write its reported Emax.
Key: 95

Exercise: Read the entry CN1C(=O)N(c2ccc(C#Cc3ccccc3)cc2Cl)C(=O)C[C@@]1(C)c1cnn(C)c1 and write its reported Emax.
Key: 175

Exercise: Read the entry CN1C(=O)N(c2c(F)cc(C#Cc3ccccc3)cc2F)C(=O)C[C@@]1(C)c1cnn(CC2COC2)c1 and write its reported Emax.
Key: 110

Exercise: Read the entry CC(C)n1ccc([C@]2(C)CC(=O)N(c3c(F)cc(C#Cc4ccccc4)cc3F)C(=O)N2C)n1 and write its reported Emax.
Key: 146

---

I'd appreciate it if you could supply EC50 values for the items below.
SYSTEM_UNDER_TEST: human mGlu4 receptor (Homo sapiens)
Construct: expressed in transfected cells; host or cells: monoclonal HEK-293 cell line, stably transfected
EXPERIMENTAL_PROTOCOL: Ca2+ mobilization in vitro assay on recombinant human mGlu4 expressed in HEK293 cells (PAM, L-AP4 at EC20)
Type: cell-based
EXPERIMENTAL_CONDITIONS: HEK293 cells expressing human mGlu4; L-AP4 added at EC20
Procedure: FIG. 1: Illustration of the experimental outline for mGlu4 PAM Ca2+ mobilization screening assay and the determination of EC50 and % Emax values. […] About 24 hrs before an experiment, 5×10^4 cells/well were seeded in poly-D-lysine coated, black/clear-bottomed 96-well plates. […] Responses were measured as peak increase in fluorescence minus basal (i.e. fluorescence without addition of L-AP4), normalized to the maximal stimulatory effect obtained with saturating concentrations of L-AP4. […]
Just the number please, in nM, no unit attached.

Exercise: Give measured EC50 for CN1C(=O)N(c2c(F)cc(C#Cc3ccccc3)cc2F)C(=O)C[C@@]1(C)c1cnn(CCO)c1 [Example 23] (human mGlu4 receptor (Homo sapiens)).
Key: 108

Exercise: Give measured EC50 for CN1C(=O)N(c2c(F)cc(C#Cc3ccccc3)cc2F)C(=O)C[C@@]1(C)c1cnn(CC(C)(C)O)c1 [Example 60] (human mGlu4 receptor (Homo sapiens)).
Key: 47

Exercise: Give measured EC50 for CN1C(=O)N(c2c(F)cc(C#Cc3ccccc3)cc2F)C(=O)C[C@@]1(C)c1cnn(CCCO)c1 [Example 22] (human mGlu4 receptor (Homo sapiens)).
Key: 56

Exercise: Give measured EC50 for CN1C(=O)N(c2c(F)cc(C#Cc3ccccc3)cc2F)C(=O)C[C@@]1(C)c1cc[nH]n1 [Example 10] (human mGlu4 receptor (Homo sapiens)).
Key: 84

---

SYSTEM_UNDER_TEST: human mGlu4 receptor (Homo sapiens)
Construct: expressed in transfected cells; host or cells: monoclonal HEK-293 cell line, stably transfected
EXPERIMENTAL_PROTOCOL: Ca2+ mobilization in vitro assay on recombinant human mGlu4 expressed in HEK293 cells (PAM, L-AP4 at EC20)
Format: cell-based
EXPERIMENTAL_CONDITIONS: HEK293; maximal response in % of the maximal stimulatory effect obtained with saturating concentrations of L-AP4; read-out: Eff. (%)
I'd appreciate it if you could supply Emax values for the items below.
Just the number please, in %, no unit attached.

Exercise: Read the entry CN1C(=O)N(c2c(F)cc(C#Cc3ccccc3)cc2F)C(=O)C[C@@]1(C)c1cn[nH]c1 and write its reported Emax.
Key: 131

Exercise: Read the entry CN1C(=O)N(c2c(F)cc(C#Cc3ccc(F)cc3)cc2F)C(=O)C[C@@]1(C)c1cn[nH]c1 and write its reported Emax.
Key: 135

Exercise: Read the entry CN1C(=O)N(c2c(F)cc(C#Cc3ccccc3)cc2F)C(=O)C[C@@]1(C)c1cnn[nH]1 and write its reported Emax.
Key: 114

Exercise: Read the entry CN1C(=O)N(c2c(F)cc(C#Cc3ccccc3)cc2F)C(=O)C[C@@]1(C)c1ccno1 and write its reported Emax.
Key: 165

Exercise: Read the entry CN1C(=O)N(c2c(F)cc(C#Cc3ccccc3)cc2F)C(=O)C[C@@]1(C)c1nn(C)c2ncccc12 and write its reported Emax.
Key: 154

Exercise: Read the entry CN1C(=O)N(c2c(F)cc(C#Cc3cccc(F)c3F)cc2F)C(=O)C[C@@]1(C)c1cnn(C)c1 and write its reported Emax.
Key: 143

Exercise: Read the entry CN1C(=O)N(c2c(F)cc(C#Cc3ccccc3)cc2F)C(=O)C[C@@]1(C)c1ccnn1C and write its reported Emax.
Key: 100

---

SYSTEM_UNDER_TEST: human mGlu4 receptor (Homo sapiens)
Construct: expressed in transfected cells; host or cells: monoclonal HEK-293 cell line, stably transfected
EXPERIMENTAL_PROTOCOL: Ca2+ mobilization in vitro assay on recombinant human mGlu4 expressed in HEK293 cells (PAM, L-AP4 at EC20)
Format: cell-based
EXPERIMENTAL_CONDITIONS: HEK293 cells expressing human mGlu4; L-AP4 added at EC20
ENDPOINT_LABEL: EC50 (nM)
Just the number please, in nM, no unit attached.

Exercise: Give measured EC50 for CN1C(=O)N(c2c(F)cc(C#Cc3ccccc3)cc2Cl)C(=O)C[C@@]1(C)c1cnn(C)c1 (human mGlu4 receptor (Homo sapiens)).
Key: 99

Exercise: Give measured EC50 for CC[C@@]1(c2cn[nH]c2)CC(=O)N(c2c(F)cc(C#Cc3ccccc3)cc2F)C(=O)N1C (human mGlu4 receptor (Homo sapiens)).
Key: 39

Exercise: Give measured EC50 for CN1C(=O)N(c2c(F)cc(C#Cc3ccccc3)cc2F)C(=O)C[C@@]1(C)c1nn(C)c2ncccc12 (human mGlu4 receptor (Homo sapiens)).
Key: 126

Exercise: Give measured EC50 for CN1C(=O)N(c2c(F)cc(C#Cc3ccccc3)cc2F)C(=O)C[C@@]1(C)c1nn(C)c2ccccc12 (human mGlu4 receptor (Homo sapiens)).
Key: 157

Exercise: Give measured EC50 for CN1C(=O)N(c2c(F)cc(C#Cc3cc(F)ccc3F)cc2F)C(=O)C[C@@]1(C)c1cnn(C)c1 (human mGlu4 receptor (Homo sapiens)).
Key: 79

Exercise: Give measured EC50 for CC(C)n1cc([C@]2(C)CC(=O)N(c3c(F)cc(C#Cc4ccccc4)cc3F)C(=O)N2C)cn1 (human mGlu4 receptor (Homo sapiens)).
Key: 36

Exercise: Give measured EC50 for CCN1C(=O)N(c2c(F)cc(C#Cc3ccccc3)cc2F)C(=O)C[C@@]1(C)c1cnn(C)c1 (human mGlu4 receptor (Homo sapiens)).
Key: 67
